# reported MIC; entries follow
tested on: S. aureus (ATCC number 29213); assay: microbe, parasite or virus in culture; assay type: cell-based
quantity kind: MIC (µg/mL)

1) CC1(C)S[C@@H]2[C@H](NC(=O)[C@H](N)c3ccccc3)C(=O)N2[C@H]1C(=O)O [Ampicillin, reference compound]; 0.4
2) COc1ccc(Cn2cnc3cc4c(cc32)CCCC4)cc1C; 6.3
3) c1cc2c(cc1Cn1cnc3cc4c(cc31)CCCC4)OCO2; 4.7
4) CC(c1ccc(Cl)c(Cl)c1)n1cnc2cc3c(cc21)CCC3 (centres unmarked); 5.5
5) CC(c1ccc(Cl)c(Cl)c1)n1cnc2cc3c(cc21)CCCC3 (centres unmarked); 3.1

====

molecular target: FtuFabI (Francisella tularensis subsp. tularensis, UniProt Q5NGQ3); experiment: biochemical; set-up: species or system F. tularensis subsp. tularensis Schu4
quantity kind: log10(IC50) (log10 of the value in nM)

1. COc1ccc(Cn2cnc3cc(C)c(C)cc32)cc1C; 2.40
2. c1cc2c(cc1Cn1cnc3cc4c(cc31)CCC4)OCO2; 3.34
3. CC1(C)Cc2cc3ncn(Cc4ccc5c(c4)CC[C@@H]5O)c3cc2C1; 1.61
4. COc1ccc(Cn2cnc3cc(C)c(C)cc32)cc1OC; 3.88
5. Cc1cc2ncn(Cc3ccc(O)c(C)c3)c2cc1C; 3.11
6. CC(c1ccc(Cl)c(Cl)c1)n1cnc2cc3c(cc21)CCCC3 (stereo not drawn); 2.80

====

molecular target: FtuFabI (Francisella tularensis subsp. tularensis, UniProt Q5NGQ3); assay: biochemical; parameters: species or system F. tularensis subsp. tularensis Schu4
pIC50: −log10 of the molar value.
quantity kind: pIC50

1) COc1ccc(Cn2cnc3cc(C)c(C)cc32)cc1 [Compound 16]; 5.33
2) COc1ccc(Cn2cnc3cc4c(cc32)CC(C)(C)C4)cc1OC [Compound 12]; 7.15
3) COc1ccc(Cn2cnc3cc4c(cc32)CCCC4)cc1 [Compound 24]; 6.48
4) COc1ccc(Cn2cnc3cc4c(cc32)CC(C)(C)C4)cc1C [Compound 11]; 7.85
5) CC(c1ccc(Cl)c(Cl)c1)n1cnc2cc3c(cc21)CCC3 (stereo not shown) [Compound 3]; 7.37
6) COc1ccc(Cn2cnc3cc4c(cc32)CCC4)cc1OC [Compound 23]; 5.23
7) Cc1cc2ncn(Cc3ccc4c(c3)OCO4)c2cc1C [Compound 17]; 5.36
8) CC1(C)Cc2cc3ncn(Cc4ccc5c(c4)OCO5)c3cc2C1 [Compound 13]; 7.54
9) COc1ccc(Cn2cnc3cc4c(cc32)CCC4)cc1 [Compound 20]; 6.08
10) Nc1ccc(Cn2cnc3cc4c(cc32)CCC4)cc1 [Compound 21]; 4.92

====

biological target: FabI (Francisella tularensis subsp. tularensis, UniProt Q5NGQ3); test: biochemical; parameters: species or system F. tularensis subsp. tularensis Schu4; conditions: read-out: Ki^1 (Experimental Ki)
Sequence (Q5NGQ3 1-260 limits assumed): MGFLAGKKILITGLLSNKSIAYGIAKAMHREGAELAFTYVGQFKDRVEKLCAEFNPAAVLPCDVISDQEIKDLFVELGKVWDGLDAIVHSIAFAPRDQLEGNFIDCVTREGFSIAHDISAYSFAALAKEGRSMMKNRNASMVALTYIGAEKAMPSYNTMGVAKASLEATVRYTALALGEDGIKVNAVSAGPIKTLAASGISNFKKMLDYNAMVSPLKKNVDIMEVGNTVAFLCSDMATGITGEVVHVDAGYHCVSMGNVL
pKi: −log10 of the molar value.
# reported pKi; entries follow
quantity kind: pKi

1. c1cc2c(cc1Cn1cnc3cc4c(cc31)CCCC4)OCO2; 6.48
2. COc1ccc(Cn2cnc3cc4c(cc32)CCCC4)cc1C; 6.89
3. COc1ccc(Cn2cnc3cc4c(cc32)CCCC4)cc1OC; 5.84

====

target: FtuFabI (Francisella tularensis subsp. tularensis, UniProt Q5NGQ3); assay: biochemical; set-up: species or system F. tularensis subsp. tularensis Schu4; details: read-out: IC50, Inhibition of FabI
pIC50: −log10 of the molar value.
quantity kind: pIC50

1) c1cc2c(cc1Cn1cnc3cc4c(cc31)CCCC4)OCO2; 6.49
2) CC(c1ccc(Cl)c(Cl)c1)n1cnc2cc3c(cc21)CC(C)(C)C3 (centres unmarked); 6.62
3) COc1ccc(Cn2cnc3cc4c(cc32)CCCC4)cc1C; 6.85
4) COc1ccc(Cn2cnc3cc4c(cc32)CCC4)cc1C; 8.30
5) Cc1cc2ncn(Cc3ccc(Cl)c(Cl)c3)c2cc1C; 6.52
6) Cc1cc2ncn(C(C)c3ccc(Cl)c(Cl)c3)c2cc1C (centres unmarked); 6.43
7) COc1ccc(Cn2cnc3cc4c(cc32)CCCC4)cc1OC; 5.87
8) CC(c1ccc(Cl)c(Cl)c1)n1cnc2cc3c(cc21)COC3 (centres unmarked); 6.05

====

molecular target: FabI (Francisella tularensis subsp. tularensis); assay: biochemical; design: species or system F. tularensis subsp. tularensis Schu4
quantity kind: Ki (nM)

1) CC(c1ccc(Cl)c(Cl)c1)n1cnc2cc3c(cc21)CCCC3 (stereo not shown) [Compound 4]; 570

====

biological target: FtuFabI (Francisella tularensis subsp. tularensis); assay: biochemical; parameters: species or system F. tularensis subsp. tularensis Schu4
pKi: −log10 of the molar value.
quantity kind: pKi

1) CC(c1ccc(Cl)c(Cl)c1)n1cnc2cc3c(cc21)CCCC3 (stereo not shown) [Compound 4]; 6.29

====

target: UniProt Q5NGQ3; assay: biochemical; set-up: species or system F. tularensis subsp. tularensis Schu4; settings: read-out: IC50
quantity kind: IC50 (nM)

1) COc1ccc(Cn2cnc3cc4c(cc32)CCCC4)cc1OC; 1360
2) c1cc2c(cc1Cn1cnc3cc4c(cc31)CCCC4)OCO2; 320
3) COc1ccc(Cn2cnc3cc4c(cc32)CCCC4)cc1C; 140
